Tested on: HeLa
test: Primary qHTS to identify gynecologic anti-cancer compounds using libraries of approved drugs and bioactive compounds (AID 1345084); note: nearly all actives have a fitted effect of over 55% in size
assay.context: Gynecologic cancer cell panel viability, ATPlite luminescence, 48 h; series mostly up to 57.5 µM
Records with an inconclusive call do not appear. Active and inactive are the calls of the source. Calls come from the whole dose curve; as a rule, active = well fitted cell-killing curve with a large enough effect; inconclusive = small, poorly fitted or top-dose-only effect, or effect the other way; inactive = flat fitted curve, though single readings scatter.
Could you please pick one outcome from this set? true (1) = active, false (0) = inactive

Which outcome did this test record for the compound O=C(Nc1ccn[nH]1)c1c(F)cccc1F ?
false (0)

Try this compound next: C/C(=C\C=C\C(C)C1CCC2(C)C3CCC4C(C)(C)C(=O)CCC45CC35CCC12C)C(=O)O (stereo not drawn)
false (0)

Try this compound next: Cc1cc(NC(=O)Nc2ccc(F)c(F)c2)n(-c2ccccc2)n1
false (0)

Try this compound next: C[C@@H]1C(=O)O[C@H]2[C@H](O)C34[C@H]5C[C@@H](C(C)(C)C)C36[C@@H](OC(=O)[C@@H]6O)O[C@@]4(C(=O)O5)[C@@]12O (stereo partly drawn)
false (0)

Try this compound next: N[C@@]1(C(=O)O)CC[C@H]2[C@H](C(=O)O)[C@H]21
false (0)

Try this compound next: C[C@]1(CO)CCC[C@]2(C)C3=C(CCC12)COC3 (stereo partly drawn)
false (0)

Try this compound next: CC(C)CC(=O)OC1OC=C(CO[C@@H]2O[C@H](CO)[C@@H](O)[C@H](O)[C@H]2O)C2CC(O)C(O)(CO)C12 (stereo partly drawn)
false (0)

Try this compound next: COc1ccc(C(O)C(C)OC2OC(CO)C(O)C(O)C2O)cc1 (stereo not drawn)
false (0)
